Provenance of the data: patent US9809562B2

- ASSAY INFO: Pharmacokinetics assay of Remodelin in mice
- Assay type: in vivo
- APPLIED CONDITIONS: mouse, plasma; ICR mice, PO 5 mg/kg vs IV 1 mg/kg
MEASURE: bioavailability (%)
Numbers only, in %.

Which measured bioavailability value corresponds to N#Cc1ccc(-c2csc(NN=C3CCCC3)n2)cc1 [Compound 1] ? 43.5

###

- ASSAY INFO: Pharmacokinetics assay of Remodelin in mice
- Format: in vivo
- APPLIED CONDITIONS: mouse, plasma; ICR mice, PO 5 mg/kg
MEASURE: Tmax (min)
One number for each entry, in min.

Which measured Tmax value corresponds to N#Cc1ccc(-c2csc(NN=C3CCCC3)n2)cc1 [Compound 1] ? 15

###

- ASSAY INFO: Pharmacokinetics assay of Remodelin in mice
- Assay type: in vivo
- APPLIED CONDITIONS: mouse, plasma; ICR mice, IV 1 mg/kg
MEASURE: clearance (mL/min/kg)
Answers are plain numbers, in mL/min/kg.

Which measured clearance value corresponds to "N#Cc1ccc(-c2csc(NN=C3CCCC3)n2)cc1" ? 139
